# Tested on: HOP-92 NSCLC
# assay.info: NCI tumour cell line growth inhibition, 48 h
Entries and their measured TGI follow.

Below, each entry is followed by its recorded TGI result.
1) CC(SC(=S)N1CCCC1)C(=O)Nc1nnc(-c2ccc(Cl)cc2)o1 (stereo not drawn)
> 100 µM
2) CCOC(=O)CCN1C(=O)c2ccc(NC(=O)C(=O)O)cc2S1(=O)=O
> 100 µM

Turning to the following compound.
response.value for COc1ccc(-n2c(-c3ccc(NC(=O)CCCl)cc3)nnc2-c2cc(OC)c(OC)c(OC)c2)cc1 (field: TGI) = > 14.3 µM

---

# Tested on: NCI-H460 lung
Could you please pick one outcome from this set? active, inactive

Worked examples, 6 compounds total:
1. O=c1oc2ccccc2c(Cl)c1Cl
inactive
2. O=C(CSc1nc2ccc([N+](=O)[O-])cc2[nH]1)Nc1cccc(C(F)(F)F)c1
inactive
3. O=P(Oc1ccccc1)(Oc1ccccc1)C(O)c1ccccc1 (configuration not stated)
inactive
4. O=C1C(Cl)=C(Oc2ccccc2)C(=O)c2ccccc21
inactive
5. COc1cc2c3c(n(CCCO)c(=O)c2cc1OC)-c1cc2c(cc1C3=O)OCO2
inactive
6. CCNCCNc1cc(-c2ccc(Cl)cc2)c(C#N)c2nc3ccccc3n12
inactive

We next turn to a different compound, shown below.
## Task What classification did OCc1ccc(N(Cc2ccc(F)cc2)C2CCC2)cc1Cl end up with in this test?
## Result active

---

# Tested on: OVCAR-4 ovarian
# assay.info: NCI tumour cell line growth inhibition, 48 h
readout.label: TGI

Record CC1=CC(=C(c2ccc(N)c(C)c2)c2ccc(N)c(C)c2)C=CC1=N . Reported TGI: 52.8 µM

Value of TGI reported for the compound COc1ccc(-c2cc(-c3ccccc3)c3c(n2)-c2ccccc2NC(=O)C3)cc1 is > 100 µM

The recorded TGI for entry N#CCN(Cc1ccccc1)[C@H]1CCC[C@]1(O)/C=C/c1ccc2c(c1)OCO2 equals > 100 µM

---

# Test system: SK-MEL-5 melanoma
# assay.info: NCI tumour cell line growth inhibition, 48 h
readout.label: TGI (µM)
Number only, in µM; omit the unit.

1. CC[N+](C)(C)c1ccc(C(=C2C=CC(=[N+](C)C)C=C2)c2ccc(N(C)C)cc2)cc1
26.9

The reported TGI value, SK-MEL-5 melanoma, for O=C1c2cccnc2-c2nc(-c3ccccn3)cc3c2c1nc1ccccc13 reads 1.65

---

# Tested on: UACC-257 melanoma
# assay.info: NCI tumour cell line growth inhibition, 48 h
Below is a list of entries, each paired with its recorded TGI value.

1) CC(=O)C(C(=N)C#N)C(=O)Nc1ccccc1 (stereo unspecified)
> 100 µM

Briefly, TGI measured for CN(C(=O)C12C3C4C1C1C2C3C41C(=O)O)C(C)(C)C (stereo unspecified) : > 100 µM

# molecule Cc1cccc(/C=N/NC(=S)NC2CCCCC2)n1 ; its TGI = > 84.5 µM

Reported TGI for O=S(=O)(O)c1cc(S(=O)(=O)O)c2c(N=Nc3ccccc3)c(O)ccc2c1 was > 100 µM

TGI recorded for this molecule, CCC(C)C1=C(O)[N+]2([O-])Oc3ccc(-c4c(O)c(O)c(-c5ccc(O)cc5)c(OC(C)=O)c4OC(C)=O)cc3OC2(C(C)CC)C(=O)N1O (stereo unspecified) , is > 50 µM

For reference, reported TGI for O=C(/C=C/c1ccsc1)c1cccs1 stands at > 100 µM
